TEST SUMMARY: inhibitors of TNFa-induced NFkB p65 translocation, primary screen, imaging, HUVEC, MLSMR starter and 10KST1 sets (AID 438);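 further: compound added about 3h40 before a 20 min TNFalpha stimulation; signal is the nuclear over cytoplasmic p65 intensity ratio per well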
MEASUREMENT SETUP: HUVEC TNFa-induced p65 nuclear translocation; at 2 µM, stronger effect = higher value, 0% TNFa-plus-vehicle, 100% no-TNFa wells
MEASURED PARAMETER: inhibition (%)
Write the answer as a number in %, unit excluded.

>  <COMPOUND>
CSc1ccccc1C(=O)NC1CC2CCC1C2 (configuration not stated)

>  <ENDPOINT UNIT>
%

>  <EXPERIMENTAL VALUE>
4.5

$$$$
>  <COMPOUND>
CC(C(=O)NC1CCCCCC1)N(c1ccccc1)S(C)(=O)=O (configuration not stated)

>  <ENDPOINT UNIT>
%

>  <EXPERIMENTAL VALUE>
1.9

$$$$
>  <COMPOUND>
CC(C)=CC(=O)Nc1ccc(Br)cc1

>  <ENDPOINT UNIT>
%

>  <EXPERIMENTAL VALUE>
-11.9

$$$$
>  <COMPOUND>
COCCNC(=O)C(C)OC(=O)c1nsc(Cl)c1Cl (configuration not stated)

>  <ENDPOINT UNIT>
%

>  <EXPERIMENTAL VALUE>
-8.3

$$$$
>  <COMPOUND>
Cc1ccccc1NC(=O)C1Cc2ccccc2C(=O)O1 (configuration not stated)

>  <ENDPOINT UNIT>
%

>  <EXPERIMENTAL VALUE>
-5.8

$$$$

For reference, reported inhibition for O=C(c1ccccc1)N1CCCCC(Sc2nnnn2-c2ccccc2)C1=O (configuration not stated) stands at -15.4

Entry CCCC(O)(CCN(C)C)c1ccc(OC)cc1 (configuration not stated) — recorded inhibition = 6.7

Measured inhibition, CCN(CC(=O)NC(=O)NCc1ccco1)Cc1nc2ccccc2c(=O)[nH]1 : -20.9

Just so you know, measured inhibition for Cc1ccc(CC23CN4CCN(CC(C4)C2O)C3)c(C)c1 (configuration not stated) came out at 0

Summary for this compound, CC(C)C12CN3CC(C(C)C)(CN(C1)C3c1ccc3c(c1)OCO3)C2=O (configuration not stated) : inhibition is 10.8

Recorded inhibition (compound CCOc1ncccc1C(=O)Nc1ccc2c(C)cc(=O)oc2c1 ): 5.8

Lab note: measured inhibition of Cc1cc(O)c(NC(=O)c2ccc(Br)o2)cc1C was 5.5

Source listed as PubChem BioAssay.
